System: Porphyromonas gingivalis
MEASUREMENT PROTOCOL: Bactericidal activity against Porphyromonas gingivalis 381 assessed as growth inhibition at 10 uM treated for 24 hrs under anaerobic conditions followed by culturing in blood agar plate and measured after 5 days of incubation in an anaerobic chamber by CFU assay
Type: functional, organism-based
Activity calls are given as the source filed them. No cut-off for these calls is given here.
Outcome codes: active, inactive

>  <CHEMICAL STRING>
COc1ccc(Cc2cn(C)c3ccc([N+](=O)[O-])cc23)cc1C(=O)NS(=O)(=O)c1cccc(F)c1

>  <GROUP>
active

$$$$
>  <CHEMICAL STRING>
COc1ccc(Cc2cn(C)c3ccccc23)cc1C(=O)NS(=O)(=O)c1ccc2ccccc2c1

>  <GROUP>
inactive

$$$$
>  <CHEMICAL STRING>
COc1ccc(Cc2cn(C)c3ccccc23)cc1C(=O)NS(=O)(=O)c1cccc(F)c1

>  <GROUP>
inactive

$$$$
>  <CHEMICAL STRING>
COc1ccc(Cc2cn(C)c3ccccc23)cc1C(=O)NS(=O)(=O)c1ccc(F)cc1

>  <GROUP>
inactive

$$$$
>  <CHEMICAL STRING>
COc1ccc(Cc2cn(C)c3ccc([N+](=O)[O-])cc23)cc1C(=O)NS(=O)(=O)c1ccc([N+](=O)[O-])cc1

>  <GROUP>
active

$$$$
>  <CHEMICAL STRING>
COc1ccc(Cc2cn(C)c3ccccc23)cc1C(=O)NS(=O)(=O)c1cccc([N+](=O)[O-])c1

>  <GROUP>
inactive

$$$$
